# Test method notes: Inhibition of 20S immuno proteosome beta5i subunit (unknown origin) assessed as substrate hydrolysis using Z-Leu-Leu-Leu-al as substrate
# Parameters: species or system Homo sapiens
Where a SMILES comes first, the peptide text is derived from it. The star is where a group is joined. Cbz = O=C(OCc1ccccc1)*
Quantity: pKi
Numbers only, as −log10 of the molar value.

For CC(C)C[C@@H](C=O)NC(=O)[C@H](CC(C)C)NC(=O)[C@H](CC(C)C)NC(=O)OCc1ccccc1 [MG-132] (Cbz-Leu-Leu-Leu-aldehyde) , what is its reported pKi?
7.15
